Hey, just so you know, these numbers are from ChEMBL document CHEMBL1938360.

Test system: Mus musculus
Assay: Anticonvulsant activity in DBA/2 mouse assessed as protection from audiogenic seizures at 30 mg/kg, po measured 1 hr post administration
Type: functional
Active and inactive are the calls of the source. No cut-off for these calls is given here.
result.type: Activity

Observe how each entry below is paired with its result.
> print(dat)
                           molecular.string  study.target  result.value
1  CS(=O)(=O)Nn1c(=O)[nH]c2cc(C(F)(F)F)c(-n3cnnc3)cc2c1=O  Mus musculus      inactive
2  CNC(=O)c1cn(-c2cc3c(=O)n(NS(C)(=O)=O)c(=O)[nH]c3cc2C(F)(F)F)cn1  Mus musculus      inactive
3  CS(=O)(=O)Nn1c(=O)[nH]c2cc([N+](=O)[O-])c(-n3ccnc3)cc2c1=O  Mus musculus      inactive
4  CS(=O)(=O)Nn1c(=O)[nH]c2cc(C(F)(F)F)c(-n3ccnc3)cc2c1=O  Mus musculus      inactive

Now consider a different compound.
Inquiry: Request the reported Activity associated with CCNc1cc2c(=O)n(NS(C)(=O)=O)c(=O)[nH]c2cc1C(F)(F)F
Reply text: 53%
